Data credit: Sander's compilation of Henry's law constants (doi:10.1002/jps.2600670510)

- test.summary: Henry solubility constant Hcp at 298.15 K (mol/(m3 Pa))
- condition.details: reference: Rytting et al. (1978)
Listing of recorded Henry solubility constant Hcp by entry.

Worked cases, answers included:
Problem: Recall and state the measured Henry solubility constant Hcp for CC(C)CO [2-methyl-1-propanol] .
Solution: 0.8

Problem: Recall and state the measured Henry solubility constant Hcp for CCCCCN [1-pentanamine] .
Solution: 0.4

---
Problem: Recall and state the measured Henry solubility constant Hcp for CCCCCCCN [1-heptanamine] .
Solution: 0.24

Problem: Recall and state the measured Henry solubility constant Hcp for CCCCCCCCN [1-octanamine] .
Solution: 0.19

Problem: Recall and state the measured Henry solubility constant Hcp for CCCCC [pentane] .
Solution: 7.8e-06

Problem: Recall and state the measured Henry solubility constant Hcp for CCCCCO [1-pentanol] .
Solution: 0.9

Problem: Recall and state the measured Henry solubility constant Hcp for CCCCN [1-butanamine] .
Solution: 0.52

Problem: Recall and state the measured Henry solubility constant Hcp for CCCCCC [hexane] .
Solution: 5.4e-06

Problem: Recall and state the measured Henry solubility constant Hcp for CCCCCCC [heptane] .
Solution: 4.8e-06
